- assayed-target: T1, cMet-Fc fusion protein (extracellular domain of the cMet receptor expressed as an Fc-fusion protein) (human, UniProt P08581 25-932)
- T1 construct: extracellular domain; also called soluble cMet-Fc-fusion protein; soluble cMet receptor; not shown: Fc part
- T1 sequence (P08581 25-932): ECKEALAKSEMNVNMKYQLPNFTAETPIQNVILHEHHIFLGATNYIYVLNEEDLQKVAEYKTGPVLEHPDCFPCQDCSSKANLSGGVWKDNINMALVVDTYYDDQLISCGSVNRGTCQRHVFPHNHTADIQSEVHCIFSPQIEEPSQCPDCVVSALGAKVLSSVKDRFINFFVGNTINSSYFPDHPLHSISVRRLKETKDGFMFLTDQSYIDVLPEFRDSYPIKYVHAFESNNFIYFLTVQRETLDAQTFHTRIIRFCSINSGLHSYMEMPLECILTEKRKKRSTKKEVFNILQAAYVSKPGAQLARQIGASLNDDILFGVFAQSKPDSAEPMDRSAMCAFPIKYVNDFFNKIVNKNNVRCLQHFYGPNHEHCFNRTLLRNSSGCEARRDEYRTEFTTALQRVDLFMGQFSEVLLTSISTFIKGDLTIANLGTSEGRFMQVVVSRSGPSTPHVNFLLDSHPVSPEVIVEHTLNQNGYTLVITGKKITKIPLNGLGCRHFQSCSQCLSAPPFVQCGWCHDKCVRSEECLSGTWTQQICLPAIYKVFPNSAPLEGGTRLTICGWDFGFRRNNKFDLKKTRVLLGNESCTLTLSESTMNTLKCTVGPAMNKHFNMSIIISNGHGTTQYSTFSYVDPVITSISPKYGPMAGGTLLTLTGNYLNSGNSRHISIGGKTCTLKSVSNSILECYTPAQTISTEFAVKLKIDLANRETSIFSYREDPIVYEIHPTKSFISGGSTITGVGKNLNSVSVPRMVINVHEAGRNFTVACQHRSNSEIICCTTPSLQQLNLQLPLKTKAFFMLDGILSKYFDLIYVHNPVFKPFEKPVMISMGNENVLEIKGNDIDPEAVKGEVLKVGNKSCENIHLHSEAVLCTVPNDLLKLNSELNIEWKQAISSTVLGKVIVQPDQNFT
- measurement-notes: phage ELISA on cMet-Fc, competitor HGF 100 ng/mL
experimental-readout: % of binding in the absence of HGF (%)
Write it as a number; the unit % goes unstated.

Reported % of binding in the absence of HGF for AQELFQILEKQMWSDFMEWATP [15-D02 peptide-displaying phage (SEQ ID NO: 474)] was 97

Reported % of binding in the absence of HGF for AQSDHDHAHWGVKHWPFRRYQ [93-B10 peptide-displaying phage (SEQ ID NO: 482)] was 0

Reported % of binding in the absence of HGF for GSEYSCRTSRCIFSAP [452-F01 peptide-displaying phage (SEQ ID NO: 006)] was 117

Reported % of binding in the absence of HGF for AGEIFCVGPPTFTCMWTGT [552-G09 peptide-displaying phage (SEQ ID NO: 096)] was 98

Reported % of binding in the absence of HGF for AQVPDWLSAVVIEKLIEYGMMV [93-C08 peptide-displaying phage (SEQ ID NO: 464)] was 101

Reported % of binding in the absence of HGF for GSSARCDELINDFHSCLVMAP [445-E06 peptide-displaying phage (SEQ ID NO: 375)] was 83

Reported % of binding in the absence of HGF for AGLLGCWDMPMECTGEGT [465-B11 peptide-displaying phage (SEQ ID NO: 036)] was 97

Reported % of binding in the absence of HGF for AGGHWCLELKHLCPPYGT [465-B06 peptide-displaying phage (SEQ ID NO: 044)] was 89

Reported % of binding in the absence of HGF for AQVEDMATVHFKFNPATHEVIW [524-H02 peptide-displaying phage (SEQ ID NO: 492)] was 26

Reported % of binding in the absence of HGF for GDPDECQLNRETFEVWCPWHDP [547-C09 peptide-displaying phage (SEQ ID NO: 401)] was 50

Reported % of binding in the absence of HGF for AQHWDYDSGSDFWFPVFFLEHH [79-B02 peptide-displaying phage (SEQ ID NO: 475)] was 102

Reported % of binding in the absence of HGF for AGVIVCNLSMMYCLYPGT [499-C09 peptide-displaying phage (SEQ ID NO: 023)] was 91
